# testTarget: human recombinant GST cleaved CSNK1D (Homo sapiens, UniProt P48730)
# Construct: GST (cleaved yes); purchased University of Dundee clone DU 19064
# Sequence (P48730 whole entry): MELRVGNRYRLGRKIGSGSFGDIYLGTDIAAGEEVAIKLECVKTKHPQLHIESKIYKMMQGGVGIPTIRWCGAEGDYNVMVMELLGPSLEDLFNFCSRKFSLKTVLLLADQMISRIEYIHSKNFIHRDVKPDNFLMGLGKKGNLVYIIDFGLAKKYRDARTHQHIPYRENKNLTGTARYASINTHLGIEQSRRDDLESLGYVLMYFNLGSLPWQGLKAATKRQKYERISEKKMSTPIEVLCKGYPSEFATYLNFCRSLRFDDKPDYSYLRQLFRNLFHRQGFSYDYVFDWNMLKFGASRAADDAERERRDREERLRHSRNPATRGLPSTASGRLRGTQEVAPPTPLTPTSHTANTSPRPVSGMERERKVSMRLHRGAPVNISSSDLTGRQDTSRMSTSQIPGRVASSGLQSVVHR
# experimentNotes: Purified Enzyme Assay (ADP-Glo CSNK1D Kinase Assay)
# Format: biochemical
# assayConditions: 2 nM CSNK1D; peptide substrate 150 μM; ATP 20 μM; 45 minutes at room temperature
pIC50: −log10 of the molar value.
Could you label it 1 if measured pIC50 is 7 or higher, and 0 otherwise?

Some entries whose results are on file:
{"columns": ["molecule", "cat"],
 "data": [
  ["Cc1nc(-c2c(-c3ccc(F)cn3)nn3c2CC[C@H]2[C@@H]3C2(F)F)c2cn[nH]c2n1 (single isomer, unassigned)", 0],
  ["O=C1OCCn2nc(-c3ccc(F)cc3)c(-c3ccnc4[nH]ncc34)c21", 1],
  ["Fc1ccc(-c2nn3c(c2-c2ccnc4[nH]ncc24)OCCC3)nc1", 1],
  ["Cc1cc(-c2c(-c3ccc(F)cc3)nn3c2OCC(C)C3)c2cn[nH]c2n1 (racemic)", 1],
  ["C[C@H]1OCc2c(-c3ccnc4[nH]ncc34)c(-c3ccc(F)cn3)nn2[C@H]1C (single isomer, unassigned)", 1]
]}

We next turn to a different molecule, shown below.
INPUT: Decide: pIC50 of [2H]C([2H])([2H])[C@]1(C([2H])([2H])F)CCc2c(-c3c(F)cnc4[nH]ncc34)c(-c3ccc(F)cn3)nn2C1 (single isomer, unassigned) >= 7?
OUTPUT: 1

Origin of values: patent US20230339970A1
